Known T/C of a selection of molecules
# System: P388 leukemia ip, CD2F1 mice, survival T/C
# Test: NCI In Vivo Anticancer Drug Screen. Data for tumor model P388 Leukemia (intraperitoneal) in CD2F1 (CDF1) mice
# Measurement Parameters: endpoint: median survival time; dose: 100.0 mg/kg/injection; schedule: Q01DX009 (ip); vehicle: saline; higher = longer survival
Toxic doses and inconclusive results are not listed.
Endpoint: T/C

molecule=CCCCCCCCCCCCCCN1CCSCC1 recorded_value="99 % of control"
molecule=CN(C)CCC(=O)c1ccccc1 recorded_value="110 % of control"
molecule=C/C(=N\NC(=O)CCl)C(C)(C)C recorded_value="103 % of control"
molecule="COc1cc2c(cc1OC)C1C(O)C(OC)C=C3CCN(C2)C31 (stereo not drawn)" recorded_value="119 % of control"
molecule=COc1cc(CN)ccc1O recorded_value="104 % of control"
molecule=CC/C(=N/NS(=O)(=O)c1ccc(C)cc1)c1ccc(C(C)(C)C)cc1 recorded_value="102 % of control"
molecule=O=C(NC1CCCCC1)N1CCCC1 recorded_value="95 % of control"
molecule=CCn1c(=O)c2c(NC)snc2n(CC)c1=O recorded_value="95 % of control"
molecule=OCC[N+]12CN3CN(CN(C3)C1)C2 recorded_value="111 % of control"
molecule=CCOP(=O)(Nc1ccccc1OC)OCC recorded_value="107 % of control"
molecule=Nc1ccc(Br)cc1C(=O)c1ccccc1 recorded_value="89 % of control"
molecule=CCN(CC)CCOc1ccc2c(c1)C(=O)c1cc(OCCN(CC)CC)ccc1-2 recorded_value="100 % of control"
molecule=C(=C=C(c1ccccc1)c1ccccc1)=C(c1ccccc1)c1ccccc1 recorded_value="93 % of control"

###

# System: P388 leukemia ip, CD2F1 mice, survival T/C
# Test: NCI In Vivo Anticancer Drug Screen. Data for tumor model P388 Leukemia (intraperitoneal) in CD2F1 (CDF1) mice
# Measurement Parameters: endpoint: median survival time; dose: 100.0 mg/kg/injection; schedule: Q01DX009 (ip); vehicle: suspension in saline; higher = longer survival
Inconclusive results and toxic doses are left out.
Endpoint: T/C

smiles_record=Fc1ccc(CSC(=S)Nc2cccc(F)c2)cc1 target_or_system="P388 leukemia ip, CD2F1 mice, survival T/C" endpoint=T/C recorded_value="103 % of control"
smiles_record=S=C(Nc1ccc(Br)cc1)SCc1ccc2c(c1)OCO2 target_or_system="P388 leukemia ip, CD2F1 mice, survival T/C" endpoint=T/C recorded_value="119 % of control"
smiles_record=COC(=O)Cc1cccc2c(=O)cc(-c3cccs3)oc12 target_or_system="P388 leukemia ip, CD2F1 mice, survival T/C" endpoint=T/C recorded_value="94 % of control"
smiles_record=S=C(Nc1ccc(Br)cc1)SCc1ccco1 target_or_system="P388 leukemia ip, CD2F1 mice, survival T/C" endpoint=T/C recorded_value="93 % of control"
smiles_record=O=C1CCSC(=S)N1c1ccc(F)cc1 target_or_system="P388 leukemia ip, CD2F1 mice, survival T/C" endpoint=T/C recorded_value="106 % of control"

###

# Test system: P388 leukemia ip, CD2F1 mice, survival T/C
# Test: NCI In Vivo Anticancer Drug Screen. Data for tumor model P388 Leukemia (intraperitoneal) in CD2F1 (CDF1) mice
# Measurement Parameters: endpoint: median survival time; dose: 50.0 mg/kg/injection; schedule: Q01DX001 (ip); vehicle: saline with Tween-80; higher = longer survival
Toxic doses and inconclusive results are not listed.
Endpoint: T/C

compound=COc1ccc2c(c1)[C@]13CCN(N=O)[C@H](C2)[C@@H]1CCC(=O)C3 target_or_system="P388 leukemia ip, CD2F1 mice, survival T/C" recorded_value="108 % of control"
compound=CN(CCN1C(=O)c2c(Cl)c(Cl)c(Cl)c(Cl)c2C1=O)c1ccccc1 target_or_system="P388 leukemia ip, CD2F1 mice, survival T/C" recorded_value="95 % of control"
compound=CC(=O)CC(C)=O.CC(=O)CC(C)=O.CCCn1ccnc1.O=N[O-].[Co] target_or_system="P388 leukemia ip, CD2F1 mice, survival T/C" recorded_value="95 % of control"
compound="C[C@]12CC[C@H](OC(=O)Cc3ccc(N(CCCl)CCCl)cc3)CC1CC[C@@H]1C2CC[C@]2(C)NC(=O)CCC12 (some centres undefined)" target_or_system="P388 leukemia ip, CD2F1 mice, survival T/C" recorded_value="195 % of control"

###

# Test system: P388 leukemia ip, CD2F1 mice, survival T/C
# Test: NCI In Vivo Anticancer Drug Screen. Data for tumor model P388 Leukemia (intraperitoneal) in CD2F1 (CDF1) mice
# Measurement Parameters: endpoint: median survival time; dose: 400.0 mg/kg/injection; schedule: Q01DX009 (ip); vehicle: saline with Tween-80; higher = longer survival
# Description: The antitumor activity of compounds was measured in mice bearing transplantable tumors. Survival or tumor size were measured and the results are expressed as the measurement made in the treated group (T) divided by the measurement made in the vehicle treated control group (C). The tumor model used in this assay is P388 Leukemia (intraperitoneal) in CD2F1 (CDF1) mice
Inconclusive results and toxic doses are left out.
Known T/C of a selection of compounds
Endpoint: T/C

compound=O=C(O)c1ccc(CCCBr)cc1 recorded_value="97 % of control"
compound=N#C/C(=C\c1ccc(Cl)cc1)c1ccccc1 recorded_value="100 % of control"
compound="COc1ccccc1CC(N)c1nn[nH]n1 (centres undefined)" recorded_value="96 % of control"
compound=O=C1NC(=O)C(Cc2ccccc2)(Cc2ccccc2)C(=O)N1 recorded_value="95 % of control"
compound="O=C1OC(c2ccccc2)CC1N1CCOCC1 (centres undefined)" recorded_value="100 % of control"
compound=N#C/C(=C1C=C/C(=N/O)C=C/1Cl)c1ccccc1 recorded_value="94 % of control"
compound=Cc1cc(C)[nH]c(=O)c1 recorded_value="109 % of control"
compound=Clc1ccc2sc(-c3ccccc3)nc2c1 recorded_value="100 % of control"
compound="CC1CCCCC1C(C)(C#N)Nc1ccccc1 (centres undefined)" recorded_value="118 % of control"
compound=O=C(c1ccccc1)N(C(=O)c1ccccc1)c1ccccn1 recorded_value="93 % of control"
compound=CCOC(=O)c1nc2ccccc2c(=O)[nH]1 recorded_value="100 % of control"
compound=O=C(/C=C(\NC1CCCCC1)C(=O)c1ccccc1)c1ccccc1 recorded_value="100 % of control"
compound=Cc1ncc(CO)n1C recorded_value="113 % of control"
compound=CNc1ccccc1C(=O)C(=O)O recorded_value="100 % of control"

###

Known T/C of a selection of compounds
# Tested on: P388 leukemia ip, CD2F1 mice, survival T/C
# Test: NCI In Vivo Anticancer Drug Screen. Data for tumor model P388 Leukemia (intraperitoneal) in CD2F1 (CDF1) mice
# Measurement Parameters: endpoint: median survival time; dose: 200.0 mg/kg/injection; schedule: Q01DX005 (ip); vehicle: Klucel (hydroxypropylcellulose) (HPC); higher = longer survival
Inconclusive results and toxic doses are left out.
Endpoint: T/C

compound=Cc1nc(-c2ccccc2)nc2c1nc(Cc1ccc(Cl)cc1)n2Nc1ccccc1 target_or_system="P388 leukemia ip, CD2F1 mice, survival T/C" recorded_value="88 % of control"
compound=Cc1cnc2cc(Cl)ccc2c1Cl target_or_system="P388 leukemia ip, CD2F1 mice, survival T/C" recorded_value="103 % of control"
compound="CCOC(=O)C1Cc2c([nH]c(=O)[nH]c2=O)OC1(C)c1ccccc1 (stereo unspecified)" target_or_system="P388 leukemia ip, CD2F1 mice, survival T/C" recorded_value="97 % of control"
compound=CC(C)=NN/C=N/S(=O)(=O)c1ccc(C)cc1 target_or_system="P388 leukemia ip, CD2F1 mice, survival T/C" recorded_value="104 % of control"
compound="COC(=O)C1CP2(C)(C)N(C)C(=O)N2C1(c1ccccc1)c1ccccc1 (stereo unspecified)" target_or_system="P388 leukemia ip, CD2F1 mice, survival T/C" recorded_value="112 % of control"
compound=Cc1c(N(C)c2ccccc2)c(=S)n(C)c(=S)n1C target_or_system="P388 leukemia ip, CD2F1 mice, survival T/C" recorded_value="90 % of control"

###

# System: P388 leukemia ip, CD2F1 mice, survival T/C
# Test: NCI In Vivo Anticancer Drug Screen. Data for tumor model P388 Leukemia (intraperitoneal) in CD2F1 (CDF1) mice
# Measurement Parameters: endpoint: median survival time; dose: 200.0 mg/kg/injection; schedule: Q04DX002 (ip); vehicle: Klucel (hydroxypropylcellulose) (HPC); higher = longer survival
# Procedure: The antitumor activity of compounds was measured in mice bearing transplantable tumors. Survival or tumor size were measured and the results are expressed as the measurement made in the treated group (T) divided by the measurement made in the vehicle treated control group (C). The tumor model used in this assay is P388 Leukemia (intraperitoneal) in CD2F1 (CDF1) mice
Toxic doses and inconclusive results are not listed.
Endpoint: T/C

compound="COc1cccc2c1SCC/C2=N\\OCC(O)CNC1CCCCC1 (stereo not given)" endpoint=T/C recorded_value="94 % of control"
compound=Nc1ccc(S(=O)(=O)n2c(=O)oc3ccc(Br)cc32)cc1 endpoint=T/C recorded_value="90 % of control"
compound=Cc1ccc(NC(=S)N/N=C\c2nc3ccccc3c3ccccc23)cc1 endpoint=T/C recorded_value="92 % of control"
compound=Cc1ccc2c(c1)N=C(OCCCN(C)C)/C(=C/c1ccccc1)O2 endpoint=T/C recorded_value="101 % of control"
compound=COc1ccc(C2=C(Cl)C(=O)N(c3ccc(OC)cc3)C(=O)C2(Cl)Cl)cc1 endpoint=T/C recorded_value="95 % of control"
